tested target: T1, zebrafish Tac3rb (tac3 receptor b, NKB receptor) (zebrafish)
T1 chain: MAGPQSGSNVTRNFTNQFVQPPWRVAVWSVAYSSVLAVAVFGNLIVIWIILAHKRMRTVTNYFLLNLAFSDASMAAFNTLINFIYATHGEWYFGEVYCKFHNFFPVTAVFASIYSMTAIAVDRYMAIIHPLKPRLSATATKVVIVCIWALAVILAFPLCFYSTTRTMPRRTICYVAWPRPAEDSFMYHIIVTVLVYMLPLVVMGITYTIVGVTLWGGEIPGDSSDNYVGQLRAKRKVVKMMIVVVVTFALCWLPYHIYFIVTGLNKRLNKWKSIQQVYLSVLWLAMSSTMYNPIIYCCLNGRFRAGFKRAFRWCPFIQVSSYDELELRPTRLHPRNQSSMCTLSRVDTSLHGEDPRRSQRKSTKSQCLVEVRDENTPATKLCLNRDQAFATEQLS
protocol description: cell-based or functional assay
*1 amine or outer side, *2 acyl side, *3 side chain or, on linkers, in order; H or OH if unused. Where no end group is shown, it is not given here. [ ]: non-standard residue; d: D form. Suc = O=C(CCC(=O)[*:2])[*:1]; NMeV = CN[C@H](C(=O)O)C(C)C
Items are presented alongside their recorded EC50, SRE reporter gene that follows PKC activation, transfected COS-7 cells.

Give the value of EC50, SRE reporter gene that follows PKC activation, transfected COS-7 cells reported for the following: Suc-DIF[NMeV]GLM-NH2 (SMILES CC[C@H](C)[C@H](NC(=O)[C@H](CC(=O)O)NC(=O)CCC(=O)O)C(=O)N[C@@H](Cc1ccccc1)C(=O)N(C)[C@H](C(=O)NCC(=O)N[C@@H](CC(C)C)C(=O)N[C@@H](CCSC)C(N)=O)C(C)C) [NKBa-analog (Succ-Asp-Ile-Phe-N(Me)Val-Gly-Leu-Met-NH2)]
0.29 nM

Give the value of EC50, SRE reporter gene that follows PKC activation, transfected COS-7 cells reported for the following: XDSFXGLM (N-terminal succinyl (Succ) on Asp; N(Me)Val; C-terminal amide (-NH2)) [NKF-analog (Succ-Asp-Ser-Phe-N(Me)Val-Gly-Leu-Met-NH2)]
0.54 nM

Give the value of EC50, SRE reporter gene that follows PKC activation, transfected COS-7 cells reported for the following: DMHDFFVGLM-NH2 [human NKB (neurokinin B)]
0.82 nM

Give the value of EC50, SRE reporter gene that follows PKC activation, transfected COS-7 cells reported for the following: STGINREAHLPFRPNMNDIFVGLL-NH2 [Zebrafish Tac3b peptide, neurokinin Bb (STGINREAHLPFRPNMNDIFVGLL-NH2)]
15.3 nM
